- System: NCI-H522
- Assay Protocol: NCI tumour cell line growth inhibition, 48 h
The source made the active and inactive calls. No stated cut-off is given here; in the data, active = GI50 up to about 1.1 µM and inactive = higher.
Value Kind: GI50

The molecule listed as Cn1cc(-c2ccc3c4ccccc4n(C)c3c2)c2ccccc21 has a reported GI50 of > 100 µM (inactive)

The molecule listed as CCOC(=O)c1ncoc1[C@H]1COC(C)(C)O1 has a reported GI50 of > 100 µM (inactive)

The molecule listed as Cc1cccc(NC(=O)/C=C/c2ccc(N(CCC#N)CCC#N)cc2C)c1 has a reported GI50 of > 100 µM (inactive)

The molecule listed as COP(=O)(O)C(N)Cc1c[nH]c2ccccc12 (stereo not drawn) has a reported GI50 of > 100 µM (inactive)

The molecule listed as CN(C)Cc1cc(/N=N/c2ccccc2)ccc1O has a reported GI50 of 29.6 µM (inactive)

The molecule listed as O=S1(=O)OCCOS(=O)(=O)C1C1c2ccccc2-c2ccccc21 has a reported GI50 of 20.7 µM (inactive)

The molecule listed as COC(=O)CCc1cc(OC)c(O)c(C(Cc2ccc(OC)c(OC)c2)C(=O)OC)c1 (stereo not drawn) has a reported GI50 of > 100 µM (inactive)

The molecule listed as CCSc1c2cc(OC)ccc2nc2ccc(OC)cc12 has a reported GI50 of 9.33 µM (inactive)

The molecule listed as Cc1nc(-c2nc([N+](=O)[O-])c([N+](=O)[O-])[nH]2)cs1 has a reported GI50 of > 100 µM (inactive)

The molecule listed as COc1ccc(/C=N/C23CC4CC(CC(C4)C2)C3)cc1 has a reported GI50 of > 100 µM (inactive)

The molecule listed as O=[N+]([O-])c1ccc(/C(=C\c2ccccc2)Cn2ccnc2)cc1 has a reported GI50 of 20 µM (inactive)

The molecule listed as Oc1cccc2nc3cc(CN4CCOCC4)c(CN4CCOCC4)cc3nc12 has a reported GI50 of 30.9 µM (inactive)

The molecule listed as CC[S+]1C2=C(CC(C)(C)CC2=O)[N-]c2ccccc21 (stereo not drawn) has a reported GI50 of > 100 µM (inactive)

* * *

What GI50 was measured for each of the following?
- System: Malme-3M
- Assay Protocol: NCI tumour cell line growth inhibition, 48 h
Activity calls are given as the source filed them. Rule as the data show it: active = GI50 up to about 1.1 µM and inactive = higher.

The molecule listed as CC(=O)NNc1nc(C)c(C(=O)NNC(=O)C(=O)Nc2ccc(Cl)cc2)s1 has a reported GI50 of > 100 µM (inactive)

The molecule listed as Nc1ccc(/N=N/c2ccc(/C=C/c3ccc(/N=N/c4ccc(N)c5ccc(S(=O)(=O)O)cc45)cc3S(=O)(=O)O)c(S(=O)(=O)O)c2)c2cc(S(=O)(=O)O)ccc12 has a reported GI50 of > 100 µM (inactive)

The molecule listed as C1CCN2CC3CONC3C2C1 (stereo unspecified) has a reported GI50 of > 100 µM (inactive)

The molecule listed as CC1CC(c2ccc([N+](=O)[O-])cc2)=Nc2ccccc2S1 (stereo unspecified) has a reported GI50 of 35.9 µM (inactive)

The molecule listed as Cc1cc(O)c(C(C)C)cc1C(=S)Nc1ccc(Cl)cc1 has a reported GI50 of 7.52 µM (inactive)

The molecule listed as O=[N+]([O-])C(/C=C(\Cl)[N+](=O)[O-])=C(N1CCOCC1)N1CCOCC1 has a reported GI50 of 27.2 µM (inactive)

* * *

- System: 786-0
- Assay Protocol: NCI tumour cell line growth inhibition, 48 h
The source made the active and inactive calls. Rule as the data show it: active = GI50 up to about 1.1 µM and inactive = higher.
Value Kind: GI50

The compound listed as CCOC(O)(NC(=O)C(C(F)(F)F)C(F)(F)F)C(F)(F)F (stereo unspecified) has a reported GI50 of > 100 µM (inactive)

The compound listed as COc1cc2c(c(O)c1OC)-c1c(cc(OC)c(OC)c1OC)CC(C)C(C)C2 (stereo unspecified) [GOMISIN K3] has a reported GI50 of 37.7 µM (inactive)

The compound listed as O=C(N/C(=C\c1ccccc1)C1Nc2ccccc2C(=O)O1)c1ccccc1 (stereo unspecified) has a reported GI50 of 24.5 µM (inactive)

The compound listed as COc1ccccc1C(=O)Nc1ccc(Cl)c(C(=O)OC(C)C)c1 has a reported GI50 of 38 µM (inactive)

The compound listed as CO[P@]1(=O)O[C@@H](c2ccccc2)[C@H](O)[C@]1(O)c1ccccc1 has a reported GI50 of > 100 µM (inactive)

The compound listed as C/C(CC(=O)Nc1ccc(C)c(C)c1)=N\N(c1ccccc1)c1ccccc1 has a reported GI50 of 99.1 µM (inactive)

* * *

- Test system: K562
- Assay Protocol: NCI tumour cell line growth inhibition, 48 h
Active and inactive are the calls of the source. Rule as the data show it: active = GI50 up to about 1.1 µM and inactive = higher.
Can you answer with just one of these options? yes (1) (active), no (0) (inactive)

Incoming: Answer briefly: the call reported for CCOC(=O)c1sc2nc(SC)nc3c2c1NC(=O)CN3c1ccc(F)cc1 in this assay.
Outgoing: no (0)

Incoming: Answer briefly: the call reported for CCC1CCN/C(=N/S(=O)(=O)c2cc(C)c(Cl)cc2S)N1 (configuration not stated) in this assay.
Outgoing: no (0)

Incoming: Answer briefly: the call reported for NC(CCc1ncc(C(=O)O)s1)C(=O)O (configuration not stated) in this assay.
Outgoing: no (0)

Incoming: Answer briefly: the call reported for COc1ccc(C)cc1C1CCC(=O)O1 (configuration not stated) in this assay.
Outgoing: no (0)

Incoming: Answer briefly: the call reported for O=C(CCN1CCOCC1)c1ccc(Oc2ccc(F)cc2)cc1 in this assay.
Outgoing: no (0)

Incoming: Answer briefly: the call reported for N#Cc1cccc(/C=N/C23CC4CC(CC(C4)C2)C3)c1 in this assay.
Outgoing: no (0)

Incoming: Answer briefly: the call reported for COc1cc2ccc3c4c(OC)cc(OC)c(OC)c4c([O-])[n+](C)c3c2cc1OC in this assay.
Outgoing: yes (1)

Incoming: Answer briefly: the call reported for CC(C)(C)OC(=O)NCC(=O)N(CCc1ccc(Cl)c(Cl)c1)CCN1CCCC1 in this assay.
Outgoing: no (0)

Incoming: Answer briefly: the call reported for Clc1ccc(C2ON=C(c3ccccc3)N2C23CC4CC(CC(C4)C2)C3)cc1 (configuration not stated) in this assay.
Outgoing: no (0)

Incoming: Answer briefly: the call reported for COC12CC(O)=C(C(C)=O)C(=O)C1(C)c1c(OC(C)=O)c(C)c(O)c(C(C)=O)c1O2 (configuration not stated) in this assay.
Outgoing: no (0)

Incoming: Answer briefly: the call reported for CNC(=O)OCC1C2=C(C(=O)C(C)=C(N)C2=O)N2CC3C(N3C)C12OC (configuration not stated) in this assay.
Outgoing: no (0)

Incoming: Answer briefly: the call reported for CC1(C)[C@@H](Cn2nnc3c(N)ncnc32)CC[C@@]1(C)CO in this assay.
Outgoing: no (0)

Incoming: Answer briefly: the call reported for Cc1nc(N)nn1C1OCC(O)C(O)C1O (configuration not stated) in this assay.
Outgoing: no (0)

Incoming: Answer briefly: the call reported for CC(=O)NNc1nc(C)c(C(=O)NNC(=O)C(=O)Nc2ccc(Cl)cc2)s1 in this assay.
Outgoing: no (0)

Incoming: Answer briefly: the call reported for CC1NOC(=O)C1/N=N/c1ccccc1Cl (configuration not stated) in this assay.
Outgoing: no (0)

Incoming: Answer briefly: the call reported for CCOC(=O)c1ncoc1[C@H]1COC(C)(C)O1 in this assay.
Outgoing: no (0)

Incoming: Answer briefly: the call reported for Cc1noc2nnn(-c3ccc(Cl)cc3)c(=O)c12 in this assay.
Outgoing: no (0)

* * *

- System: SNB-19
- Assay Protocol: NCI tumour cell line growth inhibition, 48 h
Calls of active or inactive are those of the source. No stated cut-off is given here; in the data, active = GI50 up to about 1.1 µM and inactive = higher.
Value Kind: GI50

The compound listed as CCC(C)NC1=NCC(C)S1 (centres undefined) has a reported GI50 of > 100 µM (inactive)

The compound listed as C=C1CC(C)(c2ccc(Nc3nc4ccccc4c4occc34)cc2)OC1=O (centres undefined) has a reported GI50 of 7.45 µM (inactive)

The compound listed as C=CCNC(=O)NNC(O)(C(=O)OCC)C(F)(F)F (centres undefined) has a reported GI50 of > 100 µM (inactive)

The compound listed as C=C(C)C(O)C(O)C[C@@H](C)C1CC[C@]23C[C@]12CCC1[C@@]2(C)CCC(OC(C)=O)C(C)(C)C2CC(OC2OC(CO)C(O)C(O)C2O)[C@]13C (some centres undefined) has a reported GI50 of 20 µM (inactive)

The compound listed as CCSc1c2cc(OC)ccc2nc2ccc(OC)cc12 has a reported GI50 of 26.2 µM (inactive)

The compound listed as CC1(C)[C@@H](Cn2nnc3c(N)ncnc32)CC[C@@]1(C)CO has a reported GI50 of > 100 µM (inactive)

The compound listed as Cn1c2c(c3ccccc31)CC(=O)N1CCCC(C1)CC21OCCO1 (centres undefined) has a reported GI50 of > 100 µM (inactive)

The compound listed as COc1ccc2c([nH]c3c(O)c(-c4c(C)cc5c([nH]c6c(CC=C(C)C)c(OC)ccc65)c4O)c(C)cc32)c1CC=C(C)C has a reported GI50 of > 100 µM (inactive)

The compound listed as S=C1N(c2ccc(Cl)cc2)C2=C(/N=N/c3ccccc3)C(=Nc3ccccc3S2)N1c1ccccn1 has a reported GI50 of 13.9 µM (inactive)

The compound listed as C/C(=C\c1ccccc1)C(O)C(=O)c1nc2ccc(Cl)cc2nc1O (centres undefined) has a reported GI50 of > 100 µM (inactive)

The compound listed as O=C(Nc1ccc2c(c1)oc(=O)c1ccccc12)C(Cl)Cl has a reported GI50 of 27.3 µM (inactive)

The compound listed as COC(=O)C1=Cc2cc(OC)c(O)cc2[C@@H](c2ccc(O)c(OC)c2)[C@@H]1C(=O)OC has a reported GI50 of > 100 µM (inactive)

The compound listed as NCCCC[C@H](N)C(=O)Nc1ccc(-c2nc3ccccc3s2)cc1Cl has a reported GI50 of 12.6 µM (inactive)

The compound listed as NC(=O)c1csc(CCCCCCc2nc(C(N)=O)cs2)n1 has a reported GI50 of > 100 µM (inactive)

The compound listed as COc1ccc(S(=O)(=O)N/N=C/c2cc(I)cc([N+](=O)[O-])c2O)cc1OC has a reported GI50 of 26.3 µM (inactive)

The compound listed as CCCCNC(=O)Nc1c(C(N)=O)c2n(c1C(=O)OCC)CCCCC2 has a reported GI50 of > 100 µM (inactive)

The compound listed as Nc1ccc(/N=N/c2ccc(/C=C/c3ccc(/N=N/c4ccc(N)c5ccc(S(=O)(=O)O)cc45)cc3S(=O)(=O)O)c(S(=O)(=O)O)c2)c2cc(S(=O)(=O)O)ccc12 has a reported GI50 of > 100 µM (inactive)

The compound listed as CCOC(O)(NC(=O)C(C(F)(F)F)C(F)(F)F)C(F)(F)F (centres undefined) has a reported GI50 of > 100 µM (inactive)

The compound listed as C=C1C(=O)OC2/C=C(/C)C3(O)OC(C)(CC(OC(=O)C(C)C)C12)CC3OC(C)=O (centres undefined) has a reported GI50 of 15.3 µM (inactive)

The compound listed as CC1=NN(C(=O)Cc2ccccc2)C(=O)/C1=C\C=C\c1ccccc1 has a reported GI50 of > 100 µM (inactive)

The compound listed as Nc1ncnc2c1ncn2CC(O)CO (centres undefined) has a reported GI50 of > 100 µM (inactive)

The compound listed as CC1(C)CCc2cc3c(cc2O1)OCCC3=O has a reported GI50 of > 100 µM (inactive)

The compound listed as N#Cc1c(N)nc(Sc2ccccc2N)c(C#N)c1-c1ccccc1 has a reported GI50 of 29.4 µM (inactive)

The compound listed as O=c1[nH]nc(Cc2ccccc2)[nH]1 has a reported GI50 of > 100 µM (inactive)

The compound listed as CC1CC(c2ccc([N+](=O)[O-])cc2)=Nc2ccccc2S1 (centres undefined) has a reported GI50 of 16.7 µM (inactive)

The compound listed as COCCOCCOCCOc1cccc2c1C(=O)c1cccc(OCCOCCOCCOC)c1C2=O has a reported GI50 of > 100 µM (inactive)

The compound listed as COc1ccc([C@]23CCN(S(=O)(=O)c4ccc(C)cc4)[C@H]2[C@H](CO)C2(CC3)OCC(C)(C)CO2)cc1OC has a reported GI50 of > 100 µM (inactive)

The compound listed as Cc1ccc(Nc2nc(=S)[nH]c3[nH]ncc23)cc1 has a reported GI50 of > 100 µM (inactive)

The compound listed as CCCCN(CCCC)C(=O)C(=O)CC(=O)/C=C/c1ccccc1 has a reported GI50 of > 100 µM (inactive)
